experimental-details: qHTS assay to identify small molecule agonists of H2AX (AID 1224845)
condition: CHO-K1 phospho-H2AX Ser139 HTRF, 3 h; series mostly up to 154 µM
Inconclusive results are not listed. Active and inactive are the calls of the source. Calls come from the whole dose curve; as a rule, active = well fitted activation curve with a large enough effect in the signal ratio in the repeat runs (not every such curve was filed as active); inconclusive = weak or mixed curves; inactive = flat fitted curve, though single readings scatter; the % refers to the signal ratio.
API: response.call in True for active, False for inactive

Example results:
# compound, group
measured = [
    ("N#CC(Cl)(Cl)Cl", "False"),
    ("CC(C)CP(=S)(S)CC(C)C", "False"),
    ("C#C[C@]1(O)C=C[C@H]2[C@@H]3CCC4=CC(=O)CC[C@@H]4[C@H]3CC[C@@]21CC", "True"),
]

Assay outcome for CC(=O)C(Cl)Cl : what was it?
False

// same read-out, input: Nc1cc2c3c(c1)C(c1ccccc1)=N[C@@H](NC(=O)c1cccnc1)C(=O)N3CC2
False

// same read-out, input: C=C(C)CN(CC)c1c([N+](=O)[O-])cc(C(F)(F)F)cc1[N+](=O)[O-]
False

// same read-out, input: CC(C(O)c1ccccc1)N(C)C/C=C/c1ccccc1 (stereo not drawn)
False

// same read-out, input: COc1cc(OC)nc(Sc2cccc(Cl)c2C(=O)O)n1
False

// same read-out, input: ClC(Cl)C(Cl)Cl
False

// same read-out, input: O=NN1CCCCC1
False

// same read-out, input: C[C@]1(O)CC[C@H]2[C@@H]3CCC4=CC(=O)CC[C@]4(C)[C@@]3(F)[C@@H](O)C[C@@]21C
False

// same read-out, input: CCC1(c2ccccc2)C(=O)NC(=O)NC1=O
False

###

experimental-details: qHTS assay to identify small molecule antagonists of the retinoid acid receptor (RAR) signaling pathway - cell viability counter screen (AID 1159551); note: % is set by controls: 0 for no effect and ±100 for the full control effect; nearly all actives have a fitted effect of over 35% in size
condition: C3RL4 cells viability, ATP luminescence (CellTiter-Glo), 6 h; series mostly up to 92.4 µM
Results filed as inconclusive are left out. Active and inactive are the calls of the source. Calls come from the whole dose curve; as a rule, active = well fitted cell-killing curve with a large enough effect in the repeat runs; inconclusive = weak or mixed curves, or effect the other way; inactive = flat fitted curve, though single readings scatter.
API: response.call in 1 = active, 0 = inactive

Assay outcome for OC(c1ccc(F)cc1)(c1cncnc1)c1ccccc1Cl (stereo unspecified) : what was it?
0

// same read-out, input: CCOC(=O)CP(=O)(OCC)OCC
0

// same read-out, input: O=C1CN=C(c2ccccc2)c2cc([N+](=O)[O-])ccc2N1
0

// same read-out, input: CCC(=O)C(CCN(C)C)(c1ccccc1)c1ccccc1
0

// same read-out, input: COc1cc(OC)nc(NC(=O)NS(=O)(=O)c2ncccc2OCC(F)(F)F)n1
0

// same read-out, input: Cc1coc2c1CCC(C)C2 (stereo unspecified)
0

###

experimental-details: qHTS RealTime-Glo MT Cell Viability Assay in HEK293 cells - 8 hour (AID 1224887); note: top concentration of the series differs between compounds; % is set by controls: 0 for no effect and ±100 for the full control effect; nearly all actives have a fitted effect of over 50% in size
condition: RealTime-Glo luminescence; series mostly up to 76.8 µM
Inconclusive results are not listed. Active and inactive are the calls of the source. Calls come from the whole dose curve; as a rule, active = well fitted cell-killing curve with a large enough effect in the repeat runs; inconclusive = weak or mixed curves, or effect the other way; inactive = flat fitted curve, though single readings scatter.
measured-metric: outcome

# molecule, outcome
records = [
    ("CCCSC(=O)N(CCC)CCC", "inactive"),
    ("CCOP(=S)(OCC)Oc1ncn(-c2ccccc2)n1", "inactive"),
    ("COc1cc(C[C@@H](C)N)c(OC)cc1C", "inactive"),
    ("CCOP(=S)(OCC)Oc1nc(Cl)n(C(C)C)n1", "inactive"),
    ("OC(c1ccc(F)cc1)(c1cncnc1)c1ccccc1Cl (configuration not stated)", "inactive"),
    ("COP(=S)(OC)Oc1ccc(S(N)(=O)=O)cc1", "inactive"),
]

# get_value(readout='outcome', item= N#CC(Cl)(Cl)Cl )
inactive

// same read-out, input: O=C1CN2CCOC2(c2ccccc2Cl)c2cc(Cl)ccc2N1 (configuration not stated)
inactive

// same read-out, input: CCC(=O)c1ccccc1
inactive

###

measured-on: Estrogen receptor (Homo sapiens) (UniProt P03372)
Sequence (P03372 whole entry, looked up): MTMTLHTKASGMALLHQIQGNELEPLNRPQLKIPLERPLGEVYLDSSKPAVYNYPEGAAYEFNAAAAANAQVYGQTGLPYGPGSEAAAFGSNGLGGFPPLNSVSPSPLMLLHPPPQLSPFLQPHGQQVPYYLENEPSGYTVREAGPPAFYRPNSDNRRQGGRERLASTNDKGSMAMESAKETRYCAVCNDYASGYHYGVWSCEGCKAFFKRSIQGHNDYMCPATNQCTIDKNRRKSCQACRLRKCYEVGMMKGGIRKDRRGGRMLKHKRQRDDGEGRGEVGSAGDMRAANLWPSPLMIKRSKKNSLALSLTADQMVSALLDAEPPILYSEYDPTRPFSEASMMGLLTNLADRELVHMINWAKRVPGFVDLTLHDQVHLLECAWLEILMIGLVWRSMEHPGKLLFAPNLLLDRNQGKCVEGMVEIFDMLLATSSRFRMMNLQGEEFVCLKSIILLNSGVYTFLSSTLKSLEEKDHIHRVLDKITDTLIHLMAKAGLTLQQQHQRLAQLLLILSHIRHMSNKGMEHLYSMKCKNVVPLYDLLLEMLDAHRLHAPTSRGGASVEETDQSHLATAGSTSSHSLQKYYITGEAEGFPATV
experimental-details: qHTS assay to identify small molecule antagonists of the estrogen receptor alpha (ER-alpha) signaling pathway using the BG1 cell line in the presence of 0.1 nM 17-beta-estradiol (AID 1259244); note: % is set by controls: 0 for no effect and ±100 for the full control effect; nearly all actives have a fitted effect of over 50% in size
condition: VM7Luc4E2 (BG1) ERE-luciferase, antagonist mode, 0.1 nM E2, 22 h; series mostly up to 92.4 µM
Inconclusive results are not listed. The source made the active and inactive calls. Calls come from the whole dose curve; as a rule, active = well fitted inhibition curve with a large enough effect in the repeat runs; inconclusive = weak or mixed curves; inactive = no such curve, though single readings can be large or run the other way.

# compound, outcome
data = [
    ("O=CNC(N1CCN(C(NC=O)C(Cl)(Cl)Cl)CC1)C(Cl)(Cl)Cl (stereo not drawn)", "inactive"),
    ("OCCSCSCCO", "inactive"),
    ("CCSC(=O)N(CC)C1CCCCC1", "inactive"),
]

###

measured-on: Nuclear receptor subfamily 1 group I member 2 (Homo sapiens) (UniProt O75469)
Sequence (O75469 whole entry, looked up): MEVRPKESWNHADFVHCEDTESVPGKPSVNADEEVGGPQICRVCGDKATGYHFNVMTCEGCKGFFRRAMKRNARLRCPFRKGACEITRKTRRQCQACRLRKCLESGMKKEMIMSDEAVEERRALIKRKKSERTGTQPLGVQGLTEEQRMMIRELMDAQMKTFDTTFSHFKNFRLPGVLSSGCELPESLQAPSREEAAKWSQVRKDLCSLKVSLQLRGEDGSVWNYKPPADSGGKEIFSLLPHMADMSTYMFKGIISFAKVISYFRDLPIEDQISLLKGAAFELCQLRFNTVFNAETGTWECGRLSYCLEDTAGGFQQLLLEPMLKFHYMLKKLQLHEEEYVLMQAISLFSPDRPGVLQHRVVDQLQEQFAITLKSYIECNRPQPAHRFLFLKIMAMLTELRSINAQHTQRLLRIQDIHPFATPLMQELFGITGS
experimental-details: Human pregnane X receptor (PXR) small molecule agonists, qHTS assay (AID 1346982); note: nearly all actives have a fitted effect of over 35% in size; note: potency is the fitted concentration of half-maximal effect; for activation: % is set by controls: 0 for no effect and ±100 for the full control effect
condition: PXR-Luc HepG2, CYP3A4 luciferase reporter, 24 h; series mostly up to 92.4 µM
Records with an inconclusive call do not appear. The source made the active and inactive calls. Calls come from the whole dose curve; as a rule, active = well fitted activation curve with a large enough effect in the repeat runs; inconclusive = weak or mixed curves; inactive = no such curve, though single readings can be large or run the other way.
measured-metric: Potency

// below: answered compounds
# compound, reading
data = [
    ("C[C@@H]1CN(C2CCC(C#N)(c3ccc(F)cc3)CC2)CC[C@]1(C(=O)O)c1ccccc1 (some centres undefined)", "inactive"),
    ("CC1(C)C(=O)NC(=O)NC1=O", "inactive"),
    ("CCCCN(CCCCO)N=O", "inactive"),
    ("CCC/C(=N\\OCC)C1=C(O)CC(CC(C)SCC)CC1=O (centres undefined)", "48.9 µM (active)"),
    ("Nc1cnn(-c2ccccc2)c(=O)c1Cl", "inactive"),
]

Moving on to the next compound.
# get_value(readout='Potency', item= CNC(=O)O/N=C(\C)SC )
inactive

###

experimental-details: qHTS assay to identify small molecule antagonists of the thyroid receptor (TR) signaling pathway - cell viability counter screen (AID 743064); note: nearly all actives have a fitted effect of over 50% in size
condition: GH3.TRE-Luc viability, CellTiter-Fluor, 24 h; series mostly up to 70.3 µM
Inconclusive results are not listed. Active and inactive are the calls of the source. Calls come from the whole dose curve; as a rule, active = well fitted cell-killing curve with a large enough effect in the repeat runs; inconclusive = weak or mixed curves, or effect the other way; inactive = no such curve, though single readings can be large or run the other way.
API: response.call in yes (1) = active, no (0) = inactive

Example results:
# compound, group
measured = [
    ("CC(C)COP(=O)(OCC(C)C)OCC(C)C", "no (0)"),
    ("O=[N+]([O-])c1cccc2c([N+](=O)[O-])cccc12", "no (0)"),
    ("Cc1cnc[nH]1", "no (0)"),
]

Assay outcome for CCOc1nc(C(Cl)(Cl)Cl)ns1 : what was it?
no (0)

// same read-out, input: CCS(=O)(=O)CCSP(=O)(OC)OC
no (0)

// same read-out, input: CCC/C(=N\OCC)C1=C(O)CC(CC(C)SCC)CC1=O (stereo not given)
no (0)

// same read-out, input: Cc1ccccc1CO[C@@H]1C[C@@]2(C(C)C)CC[C@]1(C)O2
no (0)

// same read-out, input: CC(=O)C(Cl)Cl
no (0)

// same read-out, input: O=[N+]([O-])c1cccc(O)c1
no (0)

// same read-out, input: CC(=O)CCc1ccc2c(c1)OCO2
no (0)

// same read-out, input: C(CCOCC1CO1)COCC1CO1 (stereo not given)
no (0)

// same read-out, input: COc1cc(OC)nc(Oc2cccc(Oc3nc(OC)cc(OC)n3)c2C(=O)O)n1
no (0)

// same read-out, input: CCC#N
no (0)

// same read-out, input: Nc1c(Br)cc([N+](=O)[O-])cc1[N+](=O)[O-]
yes (1)

// same read-out, input: [As]#[In]
no (0)

// same read-out, input: CC(C1CC1)C(O)(Cn1cncn1)c1ccc(Cl)cc1 (stereo not given)
no (0)

// same read-out, input: OC(Cn1cncn1)(c1ccc(F)cc1)c1ccccc1F (stereo not given)
no (0)

// same read-out, input: Nc1n[nH]c(N)n1
no (0)

// same read-out, input: CCN(Cc1ccc(Cl)nc1)/C(=C/[N+](=O)[O-])NC
no (0)

// same read-out, input: C=CC1CC=CCC1 (stereo not given)
no (0)

// same read-out, input: CCN(CC)C(C)C(=O)c1ccccc1 (stereo not given)
no (0)

// same read-out, input: CC(=O)CC(c1ccc(Cl)cc1)c1c(O)c2ccccc2oc1=O (stereo not given)
no (0)

// same read-out, input: O=C1CN=C(c2ccccc2)c2cc([N+](=O)[O-])ccc2N1
no (0)

###

measured-on: Nuclear receptor ROR-gamma (Homo sapiens) (UniProt P51449)
experimental-details: qHTS assay to identify small molecule antagonists of the retinoid-related orphan receptor gamma (ROR-gamma) signaling pathway (AID 1159521;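 note: CHO cells with doxycycline inducible ROR-gamma driving an RORE luciferase reporter; top concentration of the series differs between compounds; % is set by controls: 0 for no effect and ±100 for the full control effect; nearly all actives have a fitted effect of over 50% in size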)
condition: Tet-on RORgamma CHO cells, RORE-luciferase, 16 h; series mostly up to 92.4 µM
Records with an inconclusive call do not appear. Activity calls are given as the source filed them. Calls follow the shape of the dose curve; as a rule, active = well fitted inhibition curve with a large enough effect in the repeat runs; inconclusive = weak or mixed curves, or effect the other way; inactive = no such curve, though single readings can be large or run the other way.
API: response.call in Y (active), N (inactive)

Example results:
# compound, group
records = [
    ("CCOP(=S)(Oc1cnc(C(C)(C)C)nc1)OC(C)C (centres undefined)", "N"),
    ("CCCCN(CCCCO)N=O", "N"),
    ("CN1C(=S)CN=C(c2ccccc2)c2cc(Cl)ccc21", "N"),
]

Assay outcome for N#CCNCC#N : what was it?
N

// same read-out, input: CCC1(c2ccccc2)C(=O)NC(=O)NC1=O
N

// same read-out, input: O=[N+]([O-])c1cccc(O)c1
N

// same read-out, input: CC(C)CC#N
N

// same read-out, input: COc1cc(OC)nc(NC(=O)NS(=O)(=O)c2ncccc2OCC(F)(F)F)n1
N
